Values compiled from patent US20110091994A1.

measurementTarget: T1, HCV ORFs (Gal4-DB fusions) (Hepatitis C virus genotype 1b, UniProt Q9WMX2);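 further: yeast two-hybrid screens using HCV genotype 1b proteins fused to Gal4-DB as baits against prey cDNA libraries from human spleen and foetal brain, IMAP1 via transformation and IMAP2 via mating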
T1 construct: expressed in transfected cells; host or cells: Saccharomyces cerevisiae MAV203 (IMAP1) / AH109 (IMAP2)
T1 sequence (Q9WMX2 1027-1657): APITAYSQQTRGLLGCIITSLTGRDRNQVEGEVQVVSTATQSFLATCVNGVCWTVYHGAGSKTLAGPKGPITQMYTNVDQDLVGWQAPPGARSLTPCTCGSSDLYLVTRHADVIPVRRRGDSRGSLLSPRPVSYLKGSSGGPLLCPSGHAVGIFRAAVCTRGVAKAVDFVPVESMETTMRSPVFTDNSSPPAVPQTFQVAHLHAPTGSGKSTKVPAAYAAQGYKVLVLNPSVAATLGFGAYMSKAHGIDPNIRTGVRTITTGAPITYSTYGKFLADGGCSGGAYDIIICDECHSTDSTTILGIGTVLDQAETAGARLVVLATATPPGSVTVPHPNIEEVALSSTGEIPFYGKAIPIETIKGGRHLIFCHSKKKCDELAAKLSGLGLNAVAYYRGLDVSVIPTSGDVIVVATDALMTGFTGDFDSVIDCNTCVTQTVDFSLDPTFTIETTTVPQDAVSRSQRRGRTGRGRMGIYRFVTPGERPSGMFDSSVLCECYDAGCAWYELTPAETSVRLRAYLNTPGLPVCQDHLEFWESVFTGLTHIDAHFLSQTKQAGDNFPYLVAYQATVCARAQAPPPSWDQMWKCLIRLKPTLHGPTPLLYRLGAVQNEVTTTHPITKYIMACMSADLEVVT
Assay type: binding, HCV genotype 1b, isolate con1
conditions: HCV protein NS3 as bait; human protein as prey
Give measured IMAP Y2H IMAP2 (number of IST) for each item. Keep answers brief.
Just the number, please, no unit after it.

Query: Data request, read-out IMAP Y2H IMAP2 (number of IST), for CD5L (protein, UniProt O43866 20-347, looked up) CD5 antigen-like: SPSGVRLVGGLHRCEGRVEVEQKGQWGTVCDDGWDIKDVAVLCRELGCGAASGTPSGILYEPPAEKEQKVLIQSVSCTGTEDTLAQCEQEEVYDCSHDEDAGASCENPESSFSPVPEGVRLADGPGHCKGRVEVKHQNQWYTVCQTGWSLRAAKVVCRQLGCGRAVLTQKRCNKHAYGRKPIWLSQMSCSGREATLQDCPSGPWGKNTCNHDEDTWVECEDPFDLRLVGGDNLCSGRLEVLHKGVWGSVCDDNWGEKEDQVVCKQLGCGKSLSPSFRDRKCYGPGVGRIWLDNVRCSGEEQSLEQCQHRFWGFHDCTHQEDVAVICSG
Reply: 1

Query: Given the entry BCL2A1 (protein, UniProt Q16548 1-175, looked up) Bcl-2-related protein A1: MTDCEFGYIYRLAQDYLQCVLQIPQPGSGPSKTSRVLQNVAFSVQKEVEKNLKSCLDNVNVVSVDTARTLFNQVMEKEFEDGIINWGRIVTIFAFEGILIKKLLRQQIAPDVDTYKEISYFVAEFIMNNTGEWIRQNGGWENGFVKKFEPKSGWMTFLEVTGKICEMLSLLKQYC , report its measured IMAP Y2H IMAP2 (number of IST).
Reply: 1

Query: Item under review: HOMER3 (protein, UniProt Q9NSC5 1-361, looked up) Homer protein homolog 3: MSTAREQPIFSTRAHVFQIDPATKRNWIPAGKHALTVSYFYDATRNVYRIISIGGAKAIINSTVTPNMTFTKTSQKFGQWADSRANTVYGLGFASEQHLTQFAEKFQEVKEAARLAREKSQDGGELTSPALGLASHQVPPSPLVSANGPGEEKLFRSQSADAPGPTERERLKKMLSEGSVGEVQWEAEFFALQDSNNKLAGALREANAAAAQWRQQLEAQRAEAERLRQRVAELEAQAASEVTPTGEKEGLGQGQSLEQLEALVQTKDQEIQTLKSQTGGPREALEAAEREETQQKVQDLETRNAELEHQLRAMERSLEEARAERERARAEVGRAAQLLDVSLFELSELREGLARLAEAAP . Reported IMAP Y2H IMAP2 (number of IST)?
Reply: 1
